Entry source: patent US6858591B2

# Tested on: C. albicans GC 3066
# Protocol Notes: In vitro MIC, broth dilution
# Assay type: cell-based
# Run Parameters: Candida albicans, GC3066; C. albicans GC 3066; read-out: MIC
Consider the following molecules and their measured MIC readings.
Report only the number, with the unit µg/mL understood.

Illustrative cases are given below, each with its answer.
* COc1ccc(Cn2c(=O)ccn([C@@H]3OC([C@H](O)[C@H](NCCCNC(=O)[C@H](CC(C)C)NC(=O)OCc4ccccc4)C(=O)O)[C@@H](O)[C@H]3O)c2=O)cc1 (stereo partly drawn) | 128
* COc1ccc(Cn2c(=O)ccn([C@@H]3OC([C@H](O)[C@H](NCCCNC(=O)[C@@H](N)C(C)O)C(=O)O)[C@@H](O)[C@H]3O[Si](C)(C)C(C)(C)C)c2=O)cc1 (stereo partly drawn) | 128

--- query ---
Ask | Param item = CCOC(=O)C(NCCCNC(=O)[C@@H](N)CC(C)C)[C@@H](OC(C)=O)[C@H]1O[C@H](n2ccc(=O)[nH]c2=O)[C@H](OC(C)=O)[C@@H]1OC(C)=O (stereo partly drawn) ; retrieve measured MIC.
Reply | 128

----------
# Test system: E. coli GC 2203
# Protocol Notes: In vitro MIC, broth dilution
# Format: cell-based
# Run Parameters: Escherichia coli, GC2203; E. coli GC 2203; read-out: MIC
Consider the following molecules and their measured MIC readings.

Illustrative cases are given below, each with its answer.
- CCOC(=O)C(NCCCNC(=O)[C@@H](NC(=O)OCc1ccccc1)C(C)O)C(O)[C@H]1O[C@H](n2ccc(=O)[nH]c2=O)[C@H](OC(C)=O)[C@@H]1OC(C)=O (some centres unmarked) [Example 31a]: 128 µg/mL
- COc1ccc(Cn2c(=O)ccn([C@@H]3OC([C@H](O)[C@H](NCCCNC(=O)[C@H](CC(C)C)NC(=O)[C@H](CCCNC(=N)N[N+](=O)[O-])NC(=O)N[C@H](C(=O)OCc4ccccc4)C(C)C)C(=O)O)[C@@H](O)[C@H]3O)c2=O)cc1 (some centres unmarked): > 128 µg/mL
- COc1ccc(Cn2c(=O)ccn([C@@H]3OC([C@H](O)[C@H](NCCCNC(=O)CCCCCCCCCCN)C(=O)OC(C)(C)C)[C@@H](O[Si](C)(C)C(C)(C)C)[C@H]3O[Si](C)(C)C(C)(C)C)c2=O)cc1 (some centres unmarked): > 128 µg/mL
- CCOC(=O)C(NCCCNC(=O)[C@H](CC(C)C)NC(=O)OCc1ccccc1)C(OC(C)=O)[C@H]1O[C@@H](n2ccc(=O)[nH]c2=O)[C@H](OC(C)=O)[C@@H]1OC(C)=O (some centres unmarked) [Example 38b]: > 128 µg/mL

--- query ---
Ask | Param item = CCOC(=O)C(NCCCNC(=O)[C@@H](NC(=O)OCc1ccccc1)[C@@H](O)C(C)C)[C@@H](O)[C@H]1O[C@@H](n2ccc(=O)[nH]c2=O)[C@H](OC(C)=O)[C@@H]1OC(C)=O (some centres unmarked) ; retrieve measured MIC.
Reply | > 128 µg/mL

----------
# System: C. albicans GC 3066
# Protocol Notes: In vitro MIC, broth dilution
# Format: cell-based
# Run Parameters: Candida albicans, GC3066; C. albicans GC 3066; read-out: MIC
Measurement Type: MIC

Illustrative cases are given below, each with its answer.
• COc1ccc(Cn2c(=O)ccn([C@@H]3OC([C@H](O)[C@H](NCCCNC(=O)[C@@H](N)CCC(=O)OC(C)(C)C)C(=O)OC(C)(C)C)[C@@H](O[Si](C)(C)C(C)(C)C)[C@H]3O[Si](C)(C)C(C)(C)C)c2=O)cc1 (stereo partly shown) [Example 21] = > 128 µg/mL
• COc1ccc(Cn2c(=O)ccn([C@@H]3OC([C@H](O)[C@H](NCCCNC(=O)[C@@H](CC(C)C)NC(=O)OCc4ccccc4)C(=O)OC(C)(C)C)[C@@H](O[Si](C)(C)C(C)(C)C)[C@H]3O[Si](C)(C)C(C)(C)C)c2=O)cc1 (stereo partly shown) [Example 56] = > 128 µg/mL
• CCOC(=O)C(NCCCNC(=O)[C@@H](N)[C@H](C)O)[C@@H](O)[C@H]1O[C@H](n2ccc(=O)[nH]c2=O)[C@H](OC(C)=O)[C@@H]1OC(C)=O (stereo partly shown) [Example 32] = > 128 µg/mL

Ask | Param item = CCOC(=O)C(NCCCNC(=O)[C@@H](NC(=O)[C@H](CCCNC(=N)N[N+](=O)[O-])NC(=O)N[C@H](C(=O)OCc1ccccc1)C(C)C)C(C)O)C(O)[C@H]1O[C@@H](n2ccc(=O)[nH]c2=O)[C@H](OC(C)=O)[C@@H]1OC(C)=O (stereo partly shown) [Example 35] ; retrieve measured MIC.
Reply | 128 µg/mL

----------
# System: C. albicans GC 3066
# Protocol Notes: In vitro MIC, broth dilution
# Format: cell-based
# Run Parameters: Candida albicans, GC3066; C. albicans GC 3066; read-out: MIC
Measurement Type: MIC (µg/mL)
Report only the number, with the unit µg/mL understood.

- COc1ccc(Cn2c(=O)ccn([C@@H]3OC([C@H](O)[C@H](NCCCNC(=O)[C@@H](N)[C@H](C)O)C(=O)OC(C)(C)C)[C@@H](O)[C@H]3O)c2=O)cc1 (stereo partly drawn) [Example 45]: 128

Ask | Param item = COc1ccc(Cn2c(=O)ccn([C@@H]3OC([C@H](O)[C@H](NCCCNC(=O)[C@@H](NC(=O)OCc4ccccc4)[C@H](C)O)C(=O)OC(C)(C)C)[C@@H](O)[C@H]3O)c2=O)cc1 (stereo partly drawn) [Example 44] ; retrieve measured MIC.
Reply | 128

----------
Consider the following compounds and their measured MIC readings.
# Test system: S. aureus GC 1131
# Protocol Notes: In vitro MIC, broth dilution
# Format: cell-based
# Run Parameters: Staphylococcus aureus, GC1131; S. aureus GC 1131; read-out: MIC

Illustrative cases are given below, each with its answer.
* COc1ccc(Cn2c(=O)ccn([C@@H]3OC([C@H](O)[C@H](NCCCNC(=O)[C@@H](N)C(C)O)C(=O)O)[C@@H](O)[C@H]3O[Si](C)(C)C(C)(C)C)c2=O)cc1 (stereo partly drawn) | > 128 µg/mL
* CC(C)C[C@H](NC(=O)OCc1ccccc1)C(=O)NCCCN[C@H](C(=O)O)[C@@H](O)C1O[C@@H](n2ccc(=O)[nH]c2=O)[C@H](O)[C@@H]1O (stereo partly drawn) | > 128 µg/mL
* COc1ccc(Cn2c(=O)ccn([C@@H]3OC([C@H](O)[C@H](NCCCNC(=O)[C@@H](N)Cc4ccccc4)C(=O)OC(C)(C)C)[C@@H](O[Si](C)(C)C(C)(C)C)[C@H]3O[Si](C)(C)C(C)(C)C)c2=O)cc1 (stereo partly drawn) | > 128 µg/mL
* COc1ccc(Cn2c(=O)ccn([C@@H]3OC([C@H](O)[C@H](NCCCNC(=O)[C@@H](N)CC(C)C)C(=O)O)[C@@H](O)[C@H]3O)c2=O)cc1 (stereo partly drawn) | > 128 µg/mL
* COc1ccc(Cn2c(=O)ccn([C@@H]3OC([C@H](O)[C@H](NCCCNC(=O)[C@H](CC(C)C)NC(=O)OCc4ccccc4)C(=O)OC(C)(C)C)[C@@H](O)[C@H]3O)c2=O)cc1 (stereo partly drawn) | > 128 µg/mL

--- query ---
Ask | Param item = COc1ccc(Cn2c(=O)ccn([C@@H]3OC([C@H](O)[C@H](NCCCNC(=O)[C@@H](CC(C)C)NC(=O)OCc4ccccc4)C(=O)OC(C)(C)C)[C@@H](O[Si](C)(C)C(C)(C)C)[C@H]3O[Si](C)(C)C(C)(C)C)c2=O)cc1 (stereo partly drawn) ; retrieve measured MIC.
Reply | > 128 µg/mL

----------
# System: E. faecalis GC 4555
# Protocol Notes: In vitro MIC, broth dilution
# Type: cell-based
# Run Parameters: Enterococcus faecalis, GC4555
Measurement Type: MIC (µg/mL)
Report only the number, with the unit µg/mL understood.

Ask | Param item = COc1ccc(Cn2c(=O)ccn([C@@H]3OC([C@@H](O)[C@H](NCCCNC(=O)[C@@H](NC(=O)OCc4ccccc4)[C@H](C)O)C(=O)OC(C)(C)C)[C@@H](O[Si](C)(C)C(C)(C)C)[C@H]3O[Si](C)(C)C(C)(C)C)c2=O)cc1 (some centres unmarked) ; retrieve measured MIC.
Reply | 64

----------
# Tested on: C. albicans GC 3066
# Protocol Notes: In vitro MIC, broth dilution
# Assay type: cell-based
# Run Parameters: Candida albicans, GC3066; C. albicans GC 3066; read-out: MIC
Consider the following molecules and their measured MIC readings.

- COc1ccc(Cn2c(=O)ccn([C@@H]3OC([C@H](O)[C@H](NCCCNC(=O)[C@H](CC(C)C)NC(=O)OCc4ccccc4)C(=O)OC(C)(C)C)[C@@H](O)[C@H]3O)c2=O)cc1 (stereo partly shown): 128 µg/mL
- CC(C)C[C@H](NC(=O)OCc1ccccc1)C(=O)NCCCN[C@H](C(=O)OC(C)(C)C)[C@@H](O)C1O[C@@H](n2ccc(=O)[nH]c2=O)[C@H](O[Si](C)(C)C(C)(C)C)[C@@H]1O[Si](C)(C)C(C)(C)C (stereo partly shown): > 128 µg/mL
- COc1ccc(Cn2c(=O)ccn([C@@H]3OC([C@H](O)[C@H](NCCCNC(=O)[C@@H](N)Cc4ccccc4)C(=O)OC(C)(C)C)[C@@H](O[Si](C)(C)C(C)(C)C)[C@H]3O[Si](C)(C)C(C)(C)C)c2=O)cc1 (stereo partly shown): > 128 µg/mL

--- query ---
Ask | Param item = CCCCCCCCCCCCCC(=O)OC(C)[C@H](NC(=O)OCc1ccccc1)C(=O)NCCCNC(C(=O)OCC)C(O)C1O[C@@H](n2ccc(=O)[nH]c2=O)[C@H](OC(C)=O)[C@@H]1OC(C)=O (stereo in doubt) ; retrieve measured MIC.
Reply | > 128 µg/mL
